# Test system: Plasmodium berghei (Pb-Luc) exoerythrocytic-stage parasites
# APPLIED_CONDITIONS: first series; concentration 0.00457247; fraction of control
VALUE_KIND: normalized signal at concentration 0.00457247

The cases that follow already have their normalized signal at concentration 0.00457247 on record.
1. C[C@H](CO)N1C[C@H](C)[C@@H](CN(C)C(=O)Nc2ccc(C(F)(F)F)cc2)Oc2c(NC(=O)c3ccc(-c4nccs4)cc3)cccc2C1=O; 0.871
2. COc1ccc(S(=O)(=O)N(C)C[C@H]2Oc3ccc(NC(=O)Cc4cn(C)c5ccccc45)cc3C(=O)N([C@H](C)CO)C[C@@H]2C)cc1; 0.7066
3. C[C@@H]1CN([C@H](C)CO)C(=O)c2cc(N(C)C)ccc2O[C@@H](C)CCCCO[C@@H]1CN(C)S(=O)(=O)c1ccc(F)cc1; 1.06

Give me normalized signal at concentration 0.00457247 for each of these molecules, listed below.
1. C/C=C/c1ccc([C@H]2[C@@H](CO)N(CC3CCCCC3)[C@H]2CNC(C)C)cc1
2. CN(C)C(=O)c1ccc(-c2ccc([C@@H]3[C@H]4CN(C(=O)CC5CC5)CC(=O)N4[C@H]3CO)cc2)cc1

1. 0.90
2. 1.01

# get_value(readout= normalized signal at concentration 0.00457247, system= Plasmodium berghei (Pb-Luc) exoerythrocytic-stage parasites) for COCC(=O)N1C[C@H](C)[C@@H](OC)CN(C)C(=O)c2ccc(NC(=O)Nc3cccc(F)c3)cc2OC[C@@H]1C 1.078
